Data credit: patent US9868766B2

Target: human V1a receptor (Homo sapiens)
Sequence (P37288 whole entry): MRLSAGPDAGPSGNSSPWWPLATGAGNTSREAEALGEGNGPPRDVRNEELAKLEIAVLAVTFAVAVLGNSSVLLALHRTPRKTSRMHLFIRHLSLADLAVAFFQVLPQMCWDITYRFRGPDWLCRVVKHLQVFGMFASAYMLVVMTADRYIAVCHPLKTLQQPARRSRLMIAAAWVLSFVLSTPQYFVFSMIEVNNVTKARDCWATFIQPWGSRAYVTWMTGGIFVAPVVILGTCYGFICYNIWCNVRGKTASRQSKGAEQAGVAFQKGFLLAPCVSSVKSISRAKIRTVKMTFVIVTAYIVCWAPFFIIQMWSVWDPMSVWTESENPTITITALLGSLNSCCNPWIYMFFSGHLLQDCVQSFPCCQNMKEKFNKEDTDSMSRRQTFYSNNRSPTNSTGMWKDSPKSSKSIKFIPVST
Test: Calcium flux assay (FLIPR), agonist mode, CHO cells expressing human V1a
Conditions: CHO cells stably expressing human V1a; calcium flux; read-out: hV1a EC50
pEC50: −log10 of the molar value. Positions of bridges follow the written chain, without caps; N, C: chain ends. Non-standard residues stand in square brackets, D forms with d. Residues, ends and D or L forms follow the SMILES beside them. Phe(4-NH2) = Nc1ccc(C[C@H](N)C(=O)O)cc1; αMeL = CC(C)C[C@](C)(N)C(=O)O; Nle = CCCC[C@H](N)C(=O)O; Orn = NCCC[C@H](N)C(=O)O; Aze = O=C(O)[C@@H]1CCN1; Sar = CNCC(=O)O
parameter: pEC50

CC[C@H](C)[C@@H]1NC(=O)[C@H](Cc2ccc(O)cc2)NC(=O)CNC(=O)CC[C@@H](C(=O)N[C@@H](C)C(=O)N[C@@H](C)C(=O)NCC(N)=O)NC(=O)[C@H](CC(N)=O)NC(=O)[C@H](CCC(N)=O)NC1=O [Example 16] (GYIQNEAAG-NH2; lactam N-6) ... < 4.92
CC[C@H](C)[C@@H]1NC(=O)[C@H](Cc2ccc(O)cc2)NC(=O)CNC(=O)CC[C@@H](C(=O)N2CCC[C@H]2C(=O)N[C@H](CC(C)C)C(=O)NCC(N)=O)NC(=O)[C@H](CC(N)=O)NC(=O)[C@H](CCC(N)=O)NC1=O [Example 15] (GYIQNEP[dL]G-NH2; lactam N-6) ... < 4.92
CC[C@H](C)[C@@H]1NC(=O)[C@H](Cc2ccc(O)cc2)NC(=O)CNC(=O)CC[C@@H](C(=O)N2CCC[C@H]2C(=O)N[C@H](C(=O)NCC(N)=O)C(C)C)NC(=O)[C@H](CC(N)=O)NC(=O)[C@H](CCC(N)=O)NC1=O [Example 19] (GYIQNEPVG-NH2; lactam N-6) ... 6.90
CC[C@H](C)[C@@H]1NC(=O)[C@H](Cc2ccc(O)cc2)NC(=O)CNC(=O)CC[C@@H](C(=O)N(C)CC(=O)N[C@@H](CCC(=O)O)C(=O)NCC(N)=O)NC(=O)[C@H](CC(N)=O)NC(=O)[C@H](CCC(N)=O)NC1=O [Example 29] (GYIQNE[Sar]EG-NH2; lactam N-6) ... < 5.00
CC[C@H](C)[C@@H]1NC(=O)[C@H](Cc2ccc(N)cc2)NC(=O)CNC(=O)CC[C@@H](C(=O)N(C)CC(=O)N[C@@H](CC(C)C)C(=O)NCC(N)=O)NC(=O)[C@H](CC(N)=O)NC(=O)[C@H](CCC(N)=O)NC1=O [Example 2] (G[Phe(4-NH2)]IQNE[Sar]LG-NH2; lactam N-6) ... < 4.57
CC[C@H](C)[C@@H]1NC(=O)[C@H](Cc2ccc(O)cc2)NC(=O)CNC(=O)CC[C@@H](C(=O)N2CCC[C@H]2C(=O)N[C@@H](CC(C)C)C(=O)NCC(N)=O)NC(=O)[C@H](CC(N)=O)NC(=O)[C@H](CCCN)NC1=O [Example 20] (GYI[Orn]NEPLG-NH2; lactam N-6) ... < 4.92
CC[C@H](C)[C@H](NC(=O)CN(C)C(=O)[C@@H]1CCC(=O)NCC(=O)N[C@@H](Cc2ccc(O)cc2)C(=O)N[C@@H]([C@@H](C)CC)C(=O)N[C@@H](CCC(N)=O)C(=O)N[C@@H](CC(N)=O)C(=O)N1)C(=O)NCC(N)=O [Example 33] (GYIQNE[Sar]IG-NH2; lactam N-6) ... < 4.57
CC[C@H](C)[C@@H]1NC(=O)[C@H](Cc2ccc(O)cc2)NC(=O)CNC(=O)CC[C@@H](C(=O)N(C)CC(=O)N[C@@H](CCC(N)=O)C(=O)NCC(N)=O)NC(=O)[C@H](CC(N)=O)NC(=O)[C@H](CCC(N)=O)NC1=O [Example 31] (GYIQNE[Sar]QG-NH2; lactam N-6) ... < 5.00
CCCC[C@H](NC(=O)CN(C)C(=O)[C@@H]1CCC(=O)NCC(=O)N[C@@H](Cc2ccc(O)cc2)C(=O)N[C@@H]([C@@H](C)CC)C(=O)N[C@@H](CCC(N)=O)C(=O)N[C@@H](CC(N)=O)C(=O)N1)C(=O)NCC(N)=O [Example 40] (GYIQNE[Sar][Nle]G-NH2; lactam N-6) ... < 4.57
CC[C@H](C)[C@@H]1NC(=O)[C@H](Cc2ccc(O)cc2)NC(=O)CNC(=O)CC[C@@H](C(=O)N(C)CC(=O)N[C@@H](Cc2ccccc2)C(=O)NCC(N)=O)NC(=O)[C@H](CC(N)=O)NC(=O)[C@H](CCC(N)=O)NC1=O [Example 27] (GYIQNE[Sar]FG-NH2; lactam N-6) ... < 5.00

Please report pEC50 for every entry that follows.
1. CC[C@H](C)[C@@H]1NC(=O)[C@H](Cc2ccc(O)cc2)NC(=O)CNC(=O)CC[C@@H](C(=O)N2CC[C@H]2C(=O)N[C@@H](CC(C)C)C(=O)NCC(N)=O)NC(=O)[C@H](CC(N)=O)NC(=O)[C@H](CCC(N)=O)NC1=O [Example 50] (GYIQNE[Aze]LG-NH2; lactam N-6)
2. CC[C@H](C)[C@@H]1NC(=O)[C@H](Cc2ccc(O)cc2)NC(=O)CNC(=O)CC[C@@H](C(=O)N(C)CC(=O)N[C@@](C)(CC(C)C)C(=O)NCC(N)=O)NC(=O)[C@H](CC(N)=O)NC(=O)[C@H](CCC(N)=O)NC1=O [Example 51] (GYIQNE[Sar][αMeL]G-NH2; lactam N-6)
3. CC[C@H](C)[C@@H]1NC(=O)[C@H](Cc2ccc(O)cc2)NC(=O)CNC(=O)CC[C@@H](C(=O)N2CCC[C@H]2C(=O)N[C@@H](CCCCN)C(=O)NCC(N)=O)NC(=O)[C@H](CC(N)=O)NC(=O)[C@H](CCC(N)=O)NC1=O [Example 21] (GYIQNEPKG-NH2; lactam N-6)

Out:
< 4.57
< 4.57
7.49

###

Biological target: human Oxytocin (OTR) receptor (Homo sapiens)
Sequence (P30559 whole entry): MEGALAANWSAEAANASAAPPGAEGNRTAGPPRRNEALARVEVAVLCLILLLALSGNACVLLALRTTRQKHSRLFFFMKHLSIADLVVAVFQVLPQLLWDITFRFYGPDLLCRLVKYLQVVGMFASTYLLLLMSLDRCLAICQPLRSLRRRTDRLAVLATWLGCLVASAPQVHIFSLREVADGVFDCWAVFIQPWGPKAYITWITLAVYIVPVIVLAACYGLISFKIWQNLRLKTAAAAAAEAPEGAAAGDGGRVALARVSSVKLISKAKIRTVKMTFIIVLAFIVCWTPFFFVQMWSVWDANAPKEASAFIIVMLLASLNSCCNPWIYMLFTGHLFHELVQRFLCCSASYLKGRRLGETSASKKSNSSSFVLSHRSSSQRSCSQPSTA
Assay: Calcium flux assay (FLIPR), agonist mode, CHO cells expressing human OTR
Details: CHO cells stably expressing human OTR; calcium flux; read-out: hOT EC50
Positions of bridges follow the written chain, without caps; N, C: chain ends. Non-standard residues stand in square brackets, D forms with d. Residues, ends and D or L forms follow the SMILES beside them. Phe(4-NH2) = Nc1ccc(C[C@H](N)C(=O)O)cc1; Gly(octyl) = CCCCCCCC[C@H](N)C(=O)O; Hyp = O=C(O)[C@@H]1C[C@@H](O)CN1; β3hP = O=C(O)C[C@@H]1CCCN1; Ac5c = NC1(C(=O)O)CCCC1; Sar = CNCC(=O)O
parameter: log10(EC50) (log10 of the value in nM)
Hi team, quick reminder: these entries are log10 of EC50 (nM).

CC[C@H](C)[C@@H]1NC(=O)[C@H](Cc2ccc(O)cc2)NC(=O)CNC(=O)CC[C@@H](C(=O)N2CCC[C@H]2CC(=O)N[C@@H](CC(C)C)C(=O)NCC(N)=O)NC(=O)[C@H](CC(N)=O)NC(=O)[C@H](CCC(N)=O)NC1=O [Example 4] (GYIQNE[β3hP]LG-NH2; lactam N-6) ... 1.49
CC[C@H](C)[C@@H]1NC(=O)[C@H](Cc2ccc(O)cc2)NC(=O)CNC(=O)CC[C@@H](C(=O)N2C[C@H](O)C[C@H]2C(=O)N[C@@H](CC(C)C)C(=O)NCC(N)=O)NC(=O)[C@H](CC(N)=O)NC(=O)[C@H](CCC(N)=O)NC1=O [Example 45] (GYIQNE[Hyp]LG-NH2; lactam N-6) ... -0.22
CC[C@H](C)[C@@H]1NC(=O)[C@H](Cc2ccc(O)cc2)NC(=O)CN(C)C(=O)CC[C@@H](C(=O)N2CCC[C@H]2C(=O)N[C@@H](CC(C)C)C(=O)NCC(N)=O)NC(=O)[C@H](CC(N)=O)NC(=O)[C@H](CCC(N)=O)NC1=O [Example 12] ([Sar]YIQNEPLG-NH2; lactam N-6) ... 1.68
CC[C@H](C)[C@H](NC(=O)CN(C)C(=O)[C@@H]1CCC(=O)NCC(=O)N[C@@H](Cc2ccc(O)cc2)C(=O)N[C@@H]([C@@H](C)CC)C(=O)N[C@@H](CCC(N)=O)C(=O)N[C@@H](CC(N)=O)C(=O)N1)C(=O)NCC(N)=O [Example 33] (GYIQNE[Sar]IG-NH2; lactam N-6) ... 0.30
CC[C@H](C)[C@@H]1NC(=O)[C@H](Cc2ccc(O)cc2)NC(=O)CNC(=O)CC[C@@H](C(=O)N(C)CC(=O)NC2(C(=O)NCC(N)=O)CCCC2)NC(=O)[C@H](CC(N)=O)NC(=O)[C@H](CCC(N)=O)NC1=O [Example 48] (GYIQNE[Sar][Ac5c]G-NH2; lactam N-6) ... 0.56

Please report log10(EC50) for every entry that follows.
1. CC[C@H](C)[C@@H]1NC(=O)[C@H](Cc2ccc(O)cc2)NC(=O)CNC(=O)CC[C@@H](C(=O)N2CCC[C@H]2C(=O)N[C@@H](CC(C)C)C(=O)N(C)CC(N)=O)NC(=O)[C@H](CC(N)=O)NC(=O)[C@H](CCC(N)=O)NC1=O [Example 5] (GYIQNEPL[Sar]-NH2; lactam N-6)
2. CC[C@H](C)[C@@H]1NC(=O)[C@H](Cc2ccc(O)cc2)NC(=O)CNC(=O)CC[C@@H](C(=O)N(C)CC(=O)N[C@@H](Cc2c[nH]cn2)C(=O)NCC(N)=O)NC(=O)[C@H](CC(N)=O)NC(=O)[C@H](CCC(N)=O)NC1=O [Example 34] (GYIQNE[Sar]HG-NH2; lactam N-6)
3. CC[C@H](C)[C@@H]1NC(=O)[C@H](Cc2ccc(O)cc2)NC(=O)CNC(=O)CC[C@@H](C(=O)N(C)CC(=O)N[C@@H](Cc2ccc(N)cc2)C(=O)NCC(N)=O)NC(=O)[C@H](CC(N)=O)NC(=O)[C@H](CCC(N)=O)NC1=O [Example 1] (GYIQNE[Sar][Phe(4-NH2)]G-NH2; lactam N-6)
4. CC[C@H](C)[C@@H]1NC(=O)[C@H](Cc2ccc(O)cc2)NC(=O)CNC(=O)CC[C@@H](C(=O)N2CCC[C@H]2C(=O)N[C@@H](C)C(=O)NCC(N)=O)NC(=O)[C@H](CC(N)=O)NC(=O)[C@H](CCC(N)=O)NC1=O [Example 18] (GYIQNEPAG-NH2; lactam N-6)
5. CCCCCCCC[C@H](NC(=O)CN(C)C(=O)[C@@H]1CCC(=O)NCC(=O)N[C@@H](Cc2ccc(O)cc2)C(=O)N[C@@H]([C@@H](C)CC)C(=O)N[C@@H](CCC(N)=O)C(=O)N[C@@H](CC(N)=O)C(=O)N1)C(=O)NCC(N)=O [Example 54] (GYIQNE[Sar][Gly(octyl)]G-NH2; lactam N-6)
6. CC[C@H](C)[C@@H]1NC(=O)[C@H](Cc2ccc(O)cc2)NC(=O)CNC(=O)CC[C@@H](C(=O)N2CCC[C@H]2C(=O)N[C@@H](CCCCN)C(=O)NCC(N)=O)NC(=O)[C@H](CC(N)=O)NC(=O)[C@H](CCC(N)=O)NC1=O [Example 21] (GYIQNEPKG-NH2; lactam N-6)

Out:
1: 2.26; 2: 1.00; 3: 1.00; 4: 1.38; 5: -0.10; 6: 1.08

Please report log10(EC50) for every entry that follows.
1. CC[C@H](C)[C@@H]1NC(=O)[C@H](Cc2ccc(O)cc2)NC(=O)CNC(=O)CC[C@@H](C(=O)N(C)CC(=O)N[C@@H](CC(C)C)C(=O)NCC(N)=O)NC(=O)[C@H](CC(N)=O)NC(=O)[C@H](CCC(N)=O)NC1=O [Example 13] (GYIQNE[Sar]LG-NH2; lactam N-6)
2. CC[C@H](C)[C@@H]1NC(=O)[C@H](Cc2ccc(O)cc2)NC(=O)CNC(=O)CC[C@@H](C(=O)N[C@@H](C)C(=O)N[C@@H](C)C(=O)NCC(N)=O)NC(=O)[C@H](CC(N)=O)NC(=O)[C@H](CCC(N)=O)NC1=O [Example 16] (GYIQNEAAG-NH2; lactam N-6)

Out:
1: -0.70; 2: 1.48
